# assayed.target: Prostaglandin G/H synthase 1 (Ovis aries)
# protocol.text: Inhibition of ovine COX1 assessed as reduction in PGF2alpha at 10 uM incubated for 2 mins using arachidonic acid as substrate by ELISA relative to control
observed.property: inhibition (%)

test_smiles=N#Cc1ccc(NC2=CC(=O)CCC2)cc1 value_measured=46.5
test_smiles=O=C1C=C(NCc2ccco2)CCC1 value_measured=27.2
test_smiles=Cc1ccc(NC2=CC(=O)CCC2)cc1 value_measured=11.2
test_smiles=CC(C)(C)OC(=O)N(C1=CC(=O)CCC1)c1ccc(Cl)cc1 value_measured=30.5
test_smiles=CC1(C)CC(=O)C=C(Nc2ccc(Cl)cc2)C1 value_measured=16.4

a. O=C1C=C(NCc2ccccc2)CCC1
b. O=C1C=C(Nc2nc3ccccc3s2)CCC1
IN: Returns: the argument ( a or b ) having the larger inhibition. Reply briefly: the label of your chosen item.
OUT: a
(a: 24.2%, b: 5.14%)

###

# assayed.target: Prostaglandin G/H synthase 1 (Ovis aries) (UniProt P05979)
# protocol.text: Inhibition of ovine COX1 assessed as reduction in PGF2alpha at 10 uM incubated for 2 mins using arachidonic acid as substrate by ELISA relative to control
observed.property: inhibition (%)

Solved cases below.
test_smiles=CC1(C)CC(=O)C=C(Nc2ccc(F)cc2)C1 assayed_target="Prostaglandin G/H synthase 1 (Ovis aries) (UniProt P05979)" unit_info=% value_measured=34
test_smiles=O=C1C=C(Nc2cc(Cl)ccc2F)CCC1 assayed_target="Prostaglandin G/H synthase 1 (Ovis aries) (UniProt P05979)" unit_info=% value_measured=32
test_smiles=O=C1C=C(Nc2ccccc2)CCC1 assayed_target="Prostaglandin G/H synthase 1 (Ovis aries) (UniProt P05979)" unit_info=% value_measured=19.7
test_smiles=O=C1C=C(Nc2ccc([N+](=O)[O-])cc2)CCC1 assayed_target="Prostaglandin G/H synthase 1 (Ovis aries) (UniProt P05979)" unit_info=% value_measured=31
test_smiles=O=C1C=C(Nc2ccc(Cl)cc2)CC1 assayed_target="Prostaglandin G/H synthase 1 (Ovis aries) (UniProt P05979)" unit_info=% value_measured=23.7
test_smiles=O=C1C=C(Nc2ccc(Cl)cc2)CCC1 assayed_target="Prostaglandin G/H synthase 1 (Ovis aries) (UniProt P05979)" unit_info=% value_measured=12.9

a. CC1(C)CC(=O)C=C(NCc2ccco2)C1
b. CC(=O)c1ccc(NC2=CC(=O)CCC2)cc1
IN: Returns: the argument ( a or b ) having the larger inhibition. Reply briefly: the label of your chosen item.
OUT: b
